- tgt: YAP1-TEAD4 (Homo sapiens, UniProt Q15561)
- Sequence (P46937 whole entry, the tested form may be a part): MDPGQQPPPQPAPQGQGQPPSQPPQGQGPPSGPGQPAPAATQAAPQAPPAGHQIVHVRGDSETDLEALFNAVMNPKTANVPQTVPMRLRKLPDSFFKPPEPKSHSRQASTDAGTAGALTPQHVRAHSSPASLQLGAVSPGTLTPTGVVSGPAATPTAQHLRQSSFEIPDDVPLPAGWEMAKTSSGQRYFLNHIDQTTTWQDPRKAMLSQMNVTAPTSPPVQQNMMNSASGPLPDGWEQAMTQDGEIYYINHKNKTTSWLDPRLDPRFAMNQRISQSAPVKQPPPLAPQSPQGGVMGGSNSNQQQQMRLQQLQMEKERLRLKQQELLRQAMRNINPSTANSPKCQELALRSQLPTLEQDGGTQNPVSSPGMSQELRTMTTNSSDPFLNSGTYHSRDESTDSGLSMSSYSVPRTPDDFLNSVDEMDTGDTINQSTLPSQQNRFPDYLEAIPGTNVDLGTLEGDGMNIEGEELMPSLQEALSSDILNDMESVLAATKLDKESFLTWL
- Sequence (Q15561 whole entry, the tested form may be a part): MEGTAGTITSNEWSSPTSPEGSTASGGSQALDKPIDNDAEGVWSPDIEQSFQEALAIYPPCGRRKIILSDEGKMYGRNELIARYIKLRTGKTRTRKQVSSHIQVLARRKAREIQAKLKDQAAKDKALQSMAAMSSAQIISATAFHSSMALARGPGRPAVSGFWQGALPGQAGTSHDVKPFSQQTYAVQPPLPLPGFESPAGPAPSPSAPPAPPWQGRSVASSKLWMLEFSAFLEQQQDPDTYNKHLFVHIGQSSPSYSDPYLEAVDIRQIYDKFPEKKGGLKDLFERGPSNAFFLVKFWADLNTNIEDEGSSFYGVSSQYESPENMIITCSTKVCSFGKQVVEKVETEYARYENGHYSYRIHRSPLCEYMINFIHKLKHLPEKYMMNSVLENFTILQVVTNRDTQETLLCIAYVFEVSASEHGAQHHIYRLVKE
- experiment-notes: Covalent inhibition of GST-tagged TEAD4 (217 to 434 residues) (unknown origin) expressed in Escherichia coli BL21 (DE3) cells/FAM-labelled YAP1 (60 to 99 residues)(unknown origin) protein-protein interaction assessed as protein-compound adduct formation by measuring inhibition constant at 100 uM incubated for 0.5 to 6 hrs at 4 degree C followed by mass spectrometry analysis

- compound: "COc1cccc(C2CC(Cc3cccs3)=NN2C(=O)CCl)c1OC (centres undefined)"
  Ki (µM): 37.7
- compound: "O=C(NCCc1ccccc1)C(c1cccs1)N(C(=O)CCl)c1cccc(Cl)c1 (centres undefined)"
  Ki (µM): 17.3
- compound: "CCS(=O)(=O)Oc1ccc(CN(Cc2ccc(F)cc2)C(=O)CCl)cc1"
  Ki (µM): 45.8
- compound: "O=C(Nc1ccccc1)C1CCN(C(=O)CCl)CC1"
  Ki (µM): 94

---

- tgt: YAP1-TEAD4 (Homo sapiens)
- experiment-notes: Inhibition of GST-tagged TEAD4 (217 to 434 residues) (unknown origin) expressed in Escherichia coli BL21 (DE3) cells/FAM-labelled YAP1 (60 to 99 residues)(unknown origin) protein-protein interaction preincubated for 24 hrs at 4 degree C with TEAD4 followed by fluorescent labelled YAP1 addition by fluorescence polarization assay

- molecule: "CCOc1ccc(S(=O)(=O)N2CCN(C(=O)CCl)CC2)cc1"
  result-unit: "µM"
  IC50: 11.1
- molecule: "Cc1ccc(C2=NN(C(=O)CCl)C(c3ccco3)C2)cc1 (stereo unspecified)"
  result-unit: "µM"
  IC50: 2.2
- molecule: "O=C(CCl)N1N=C(c2ccccc2)CC1c1ccccc1 (stereo unspecified)"
  result-unit: "µM"
  IC50: 5.9
- molecule: "COc1ccc(C(C(=O)NC2CCCCCC2)N(Cc2ccc(C)cc2)C(=O)CCl)cc1 (stereo unspecified)"
  result-unit: "µM"
  IC50: 4.4
- molecule: "COc1ccc(CN(C(=O)CCl)C(C(=O)NC2CCCCC2)c2cccs2)cc1 (stereo unspecified)"
  result-unit: "µM"
  IC50: 13
- molecule: "Cc1ccc(S(=O)(=O)N2CCN(C(=O)CCl)CC2)cc1C"
  result-unit: "µM"
  IC50: 22.8
- molecule: "COc1ccc(C(C(=O)NC2CCCCCC2)N(Cc2cccs2)C(=O)CCl)cc1 (stereo unspecified)"
  result-unit: "µM"
  IC50: 4.8
- molecule: "O=C(CCl)NCCSc1ccc(Cl)cc1"
  result-unit: "µM"
  IC50: 1.4
- molecule: "NC(=O)c1oc2ccccc2c1NC(=O)CCl"
  result-unit: "µM"
  IC50: 0.9
- molecule: "CCS(=O)(=O)Oc1ccc(CN(Cc2ccc(F)cc2)C(=O)CCl)cc1"
  result-unit: "µM"
  IC50: 4.2
- molecule: "O=C(CCl)N1N=C(c2cccs2)CC1c1cccs1 (stereo unspecified)"
  result-unit: "µM"
  IC50: 4.7

---

We begin with a simple list: items and their reported log10 IC50.
- tgt: UniProt:Q15561
- experiment-notes: Inhibition of GST-tagged TEAD4 (217 to 434 residues) (unknown origin) expressed in Escherichia coli BL21 (DE3) cells/FAM-labelled YAP1 (60 to 99 residues)(unknown origin) protein-protein interaction preincubated for 6 hrs at 4 degree C with TEAD4 followed by fluorescent labelled YAP1 addition by fluorescence polarization assay
measurement-label: log10 IC50 (log10 of the value in µM)

- molecule: "COc1cccc(C2CC(Cc3cccs3)=NN2C(=O)CCl)c1OC (stereo unspecified)"
  log10 IC50: 1.01
- molecule: "CCS(=O)(=O)Oc1ccc(CN(Cc2ccc(F)cc2)C(=O)CCl)cc1"
  log10 IC50: 1.74
- molecule: "CCOc1ccc(S(=O)(=O)N2CCN(C(=O)CCl)CC2)cc1"
  log10 IC50: 1.75
- molecule: "O=C(NCCc1ccccc1)C(c1cccs1)N(C(=O)CCl)c1cccc(Cl)c1 (stereo unspecified)"
  log10 IC50: 0.66
- molecule: "O=C(Nc1ccccc1)C1CCN(C(=O)CCl)CC1"
  log10 IC50: 1.58
- molecule: "Cc1ccc(C2=NN(C(=O)CCl)C(c3ccco3)C2)cc1 (stereo unspecified)"
  log10 IC50: 0.77

---

- tgt: YAP1-TEAD4 (Homo sapiens) (UniProt P46937+Q15561)
- experiment-notes: Covalent inhibition of GST-tagged TEAD4 (217 to 434 residues) (unknown origin) expressed in Escherichia coli BL21 (DE3) cells/FAM-labelled YAP1 (60 to 99 residues)(unknown origin) protein-protein interaction assessed as protein-compound adduct formation at 100 uM incubated for 24 hrs at 4 degree C followed by mass spectrometry analysis
Under this convention, class 1 denotes percent protein-compound adduct formation strictly below 50% and class 0 denotes percent protein-compound adduct formation at or above 50%.

- molecule: "Cc1ccc(S(=O)(=O)N2CCN(C(=O)CCl)C2c2ccccc2)cc1 (configuration not stated)"
  qualitative-label: "class 0"
- molecule: "COc1ccc(C2=NN(C(=O)CCl)C(c3cccc(OC)c3OC)C2)cc1 (configuration not stated)"
  qualitative-label: "class 1"
- molecule: "COc1ccc(C2=NN(C(=O)CCl)C(c3nc4ccccc4[nH]3)C2)cc1 (configuration not stated)"
  qualitative-label: "class 1"
- molecule: "COc1ccc(C(C(=O)NC2CCCCCC2)N(Cc2ccccc2)C(=O)CCl)cc1 (configuration not stated)"
  qualitative-label: "class 1"
- molecule: "O=C(CCl)N1CCN(S(=O)(=O)c2ccc(Cl)cc2[N+](=O)[O-])CC1"
  qualitative-label: "class 0"
- molecule: "CCOc1ccc(S(=O)(=O)N2CCN(C(=O)CCl)CC2)cc1"
  qualitative-label: "class 0"
- molecule: "O=C(CCl)N1CCN(S(=O)(=O)/C=C/c2ccccc2)CC1"
  qualitative-label: "class 0"
- molecule: "Cc1ccc2c(c1)c1c3n2CCN(C(=O)CCl)C3CCC1 (configuration not stated)"
  qualitative-label: "class 1"
- molecule: "O=C(CCl)N1N=C(c2ccccc2)CC1c1ccccc1 (configuration not stated)"
  qualitative-label: "class 1"
- molecule: "COc1ccc(C(C(=O)NC2CCCCCC2)N(Cc2cccs2)C(=O)CCl)cc1 (configuration not stated)"
  qualitative-label: "class 1"
- molecule: "COc1ccc(C(C(=O)NCCc2ccccc2)N(Cc2cccs2)C(=O)CCl)cc1 (configuration not stated)"
  qualitative-label: "class 1"
- molecule: "O=C(CCl)N1N=C(c2cccs2)CC1c1cccs1 (configuration not stated)"
  qualitative-label: "class 1"
- molecule: "COc1ccc(C(C(=O)NC2CCCCCC2)N(Cc2ccc(C)cc2)C(=O)CCl)cc1 (configuration not stated)"
  qualitative-label: "class 1"
- molecule: "O=C(NCCc1ccccc1)C(c1cccs1)N(C(=O)CCl)c1cccc(Cl)c1 (configuration not stated)"
  qualitative-label: "class 0"
- molecule: "Cc1ccc(C2CC(c3cccs3)=NN2C(=O)CCl)cc1 (configuration not stated)"
  qualitative-label: "class 1"
- molecule: "COc1cccc(C2CC(Cc3cccs3)=NN2C(=O)CCl)c1OC (configuration not stated)"
  qualitative-label: "class 0"
- molecule: "O=C(NCCc1ccccc1)C(c1cccs1)N(C(=O)CCl)c1ccc(Cl)cc1 (configuration not stated)"
  qualitative-label: "class 1"
- molecule: "Cc1ccc(S(=O)(=O)N2CCN(C(=O)CCl)CC2)cc1C"
  qualitative-label: "class 1"
- molecule: "COc1ccc(CN(C(=O)CCl)C(C(=O)NC2CCCCCC2)c2ccc(OC)cc2)cc1 (configuration not stated)"
  qualitative-label: "class 1"
- molecule: "O=C(Nc1ccccc1)C1CCN(C(=O)CCl)CC1"
  qualitative-label: "class 0"
- molecule: "Cc1ccc(C2=NN(C(=O)CCl)C(c3ccco3)C2)cc1 (configuration not stated)"
  qualitative-label: "class 0"

---

- tgt: YAP1-TEAD4 (Homo sapiens) (UniProt P46937+Q15561)
- experiment-notes: Inhibition of GST-tagged TEAD4 (217 to 434 residues) (unknown origin) expressed in Escherichia coli BL21 (DE3) cells/FAM-labelled YAP1 (60 to 99 residues)(unknown origin) protein-protein interaction assessed as maximum inhibition at 50 uM preincubated for 24 hrs at 4 degree C with TEAD4 followed by fluorescent labelled YAP1 addition by fluorescence polarization assay
We begin with a simple list: items and their reported Imax.
measurement-label: Imax (%)

- compound: "CCS(=O)(=O)Oc1ccc(CN(Cc2ccc(F)cc2)C(=O)CCl)cc1"
  measurement-label: "Imax"
  quantitative-result: 37
- compound: "COc1ccc(N(C(=O)CCl)C(C(=O)NCCc2ccccc2)c2cccs2)cc1Cl (stereo not drawn)"
  measurement-label: "Imax"
  quantitative-result: 39
- compound: "CCOc1ccc(S(=O)(=O)N2CCN(C(=O)CCl)CC2)cc1"
  measurement-label: "Imax"
  quantitative-result: 44
- compound: "NC(=O)c1oc2ccccc2c1NC(=O)CCl"
  measurement-label: "Imax"
  quantitative-result: 35
- compound: "COc1ccc(C(C(=O)NCCc2ccccc2)N(Cc2cccs2)C(=O)CCl)cc1 (stereo not drawn)"
  measurement-label: "Imax"
  quantitative-result: 42
- compound: "COc1ccc(C(C(=O)NC2CCCCCC2)N(Cc2ccccc2)C(=O)CCl)cc1 (stereo not drawn)"
  measurement-label: "Imax"
  quantitative-result: 49
- compound: "Cc1ccc(S(=O)(=O)N2CCN(C(=O)CCl)C2)cc1"
  measurement-label: "Imax"
  quantitative-result: 49
- compound: "O=C(NCCc1ccccc1)C(c1cccs1)N(C(=O)CCl)c1ccc(Cl)cc1 (stereo not drawn)"
  measurement-label: "Imax"
  quantitative-result: 40
- compound: "COc1ccc(C2=NN(C(=O)CCl)C(c3cccc(OC)c3OC)C2)cc1 (stereo not drawn)"
  measurement-label: "Imax"
  quantitative-result: 39
- compound: "COc1ccc(C2=NN(C(=O)CCl)C(c3nc4ccccc4[nH]3)C2)cc1 (stereo not drawn)"
  measurement-label: "Imax"
  quantitative-result: 45
- compound: "COc1ccc(CN(C(=O)CCl)C(C(=O)NC2CCCCCC2)c2ccc(OC)cc2)cc1 (stereo not drawn)"
  measurement-label: "Imax"
  quantitative-result: 45
- compound: "Cc1ccc2c(c1)c1c3n2CCN(C(=O)CCl)C3CCC1 (stereo not drawn)"
  measurement-label: "Imax"
  quantitative-result: 50
- compound: "O=C(CCl)NCCSc1ccc(Cl)cc1"
  measurement-label: "Imax"
  quantitative-result: 35
- compound: "COc1cccc(C2CC(Cc3cccs3)=NN2C(=O)CCl)c1OC (stereo not drawn)"
  measurement-label: "Imax"
  quantitative-result: 48
- compound: "COc1ccc(C(C(=O)NC2CCCCCC2)N(Cc2cccs2)C(=O)CCl)cc1 (stereo not drawn)"
  measurement-label: "Imax"
  quantitative-result: 41
- compound: "O=C(Nc1ccccc1)C1CCN(C(=O)CCl)CC1"
  measurement-label: "Imax"
  quantitative-result: 41
- compound: "O=C(CCl)N1N=C(c2ccccc2)CC1c1ccccc1 (stereo not drawn)"
  measurement-label: "Imax"
  quantitative-result: 52
- compound: "Cc1ccc(C2CC(c3cccs3)=NN2C(=O)CCl)cc1 (stereo not drawn)"
  measurement-label: "Imax"
  quantitative-result: 41
- compound: "COc1ccccc1CN(C(=O)CCl)C(C(=O)NC1CCCCC1)c1ccncc1 (stereo not drawn)"
  measurement-label: "Imax"
  quantitative-result: 100
- compound: "O=C(CCl)N1N=C2/C(=C/c3ccco3)CCCC2C1c1ccco1 (stereo not drawn)"
  measurement-label: "Imax"
  quantitative-result: 67
- compound: "O=C(CCl)N1N=C(c2ccc(Br)cc2)CC1c1ccc(F)cc1 (stereo not drawn)"
  measurement-label: "Imax"
  quantitative-result: 41
- compound: "Cc1ccc(C2=NN(C(=O)CCl)C(c3ccco3)C2)cc1 (stereo not drawn)"
  measurement-label: "Imax"
  quantitative-result: 40
- compound: "O=C(CCl)N1N=C(c2cccs2)CC1c1cccs1 (stereo not drawn)"
  measurement-label: "Imax"
  quantitative-result: 46
